- testDescription: Selectivity index, ratio of CC50 for cytotoxicity against human Calu-3 cells to EC50 for antiviral activity against SARS-CoV-2 B.1 lineage isolate infected in human Calu-3 cells
- Type: toxicity, cell-based
- setupConditions: read-out: Ratio CC50/EC50
I'd appreciate it if you could supply selectivity ratio values for the items below.

Exam item: Name the recorded selectivity ratio for "COc1ccc2c(c1)O/C(=C\c1ccc(O)cc1)C2=O" .
Marked response: > 107

Exam item: Given the entry "COc1ccc(/C=C2\Oc3cc(OC(F)F)ccc3C2=O)cc1" , report its measured selectivity ratio.
Marked response: > 333

Exam item: Name the reported selectivity ratio value associated with the molecule "COc1cc(/C=C2\Oc3ccccc3C2=O)cc(OC)c1OC"
Marked response: > 43.1

Exam item: So what's the measured selectivity ratio for this one? "COc1ccc(/C=C2\Oc3cc(OCc4ccccc4)ccc3C2=O)cc1"
Marked response: > 136

Exam item: Given the entry "COCOc1cc(/C=C2\Oc3ccccc3C2=O)ccc1OC" , report its measured selectivity ratio.
Marked response: > 300

Exam item: Given the molecule "COc1ccc2c(c1)O/C(=C\c1ccccc1)C2=O" , what is its reported selectivity ratio?
Marked response: > 2000

Exam item: selectivity ratio for "COc1ccc(/C=C2\Oc3cc4c(cc3C2=O)OCO4)cc1" ?
Marked response: > 500

Exam item: If you can, please state the reported selectivity ratio value of "COc1ccc(/C=C2\Oc3c(ccc(O)c3O)C2=O)cc1" .
Marked response: > 65.2

Exam item: Form field: reported selectivity ratio of "COCOc1ccc2c(c1)O/C(=C\c1ccc(OC)c(OCOC)c1)C2=O"
Marked response: 1630

Exam item: Given the molecule "COc1ccc(/C=C2\Oc3cc(OC)ccc3C2=O)cc1" , what is its reported selectivity ratio?
Marked response: > 200

Exam item: I would be grateful if you could share the reported selectivity ratio for "COCOc1ccc2c(c1)O/C(=C\c1ccc(OC)cc1OCOC)C2=O" .
Marked response: 2440

Exam item: Record request: selectivity ratio value, item "COc1ccc(/C=C2\Oc3cc(O)ccc3C2=O)cc1O"
Marked response: > 44.6

Exam item: I am curious: what selectivity ratio value has been reported for "COc1ccc(/C=C2\Oc3cc(OCc4ccc(F)cc4)ccc3C2=O)cc1" ?
Marked response: > 104

Exam item: Find the recorded selectivity ratio belonging to "COCOc1ccc2c(c1)O/C(=C\c1ccc(OC)cc1)C2=O" and report it.
Marked response: > 1670

Exam item: Field request: selectivity ratio | item: "COCOc1cc(OC)ccc1/C=C1\Oc2ccccc2C1=O"
Marked response: > 30.5

Exam item: Item under review: "COCOc1cc(/C=C2\Oc3cc(OC)ccc3C2=O)ccc1OC" . Reported selectivity ratio?
Marked response: > 435

---

- testDescription: Cytotoxicity against African green monkey Vero E6 cells assessed as reduction in cell viability by CCK8 assay
- Format: toxicity, cell-based, Vero C1008
- setupConditions: chlorocebus sabaeus
recordedEndpoint: CC50

Exam item: Dear colleague, I am looking for the recorded CC50 of the following molecule: "O=c1cc(-c2ccccc2)oc2cc(O)c(O)c(O)c12"
Marked response: > 200 µM

---

- Test system: SARS-CoV-2
- testDescription: Antiviral activity against SARS-CoV-2 in presence of lopinavir
- Type: functional, organism-based
- setupConditions: Severe acute respiratory syndrome coronavirus 2
recordedEndpoint: pEC50
A value of pEC50 is the negative decimal logarithm of a concentration given in moles per litre.

Exam item: Can you share its pEC50? I mean this molecule: "CC(C)c1nc(CN(C)C(=O)N[C@H](C(=O)N[C@@H](Cc2ccccc2)C[C@H](O)[C@H](Cc2ccccc2)NC(=O)OCc2cncs2)C(C)C)cs1"
Marked response: 5.30

Numbers sourced from ChEMBL document CHEMBL5321246.
